Tested on: Escherichia coli TOP10
Test: shrunken log2 fold change of peptide-encoding DNA abundance (4.5 h post-induction vs induction); higher = less antimicrobial activity (less host growth inhibition)
Details: time post-induction: 4.5 h; library: site-saturation at positions 5, 18, 19, 20
parameter: shrunken log2 fold change
Respond with the number and no other words.

[
  {
    "sequence_text": "RRIRVRPPRLPRPRPRPYYKPRP",
    "shrunken log2 fold change": -0.67
  }
]

# ---- query sequence ----
Lab book: shrunken log2 fold change of RRIRTRPPRLPRPRPRPYHLPRP noted as -0.805

* * *

Tested on: Escherichia coli TOP10
Assay: shrunken log2 fold change of peptide-encoding DNA abundance (4.5 h post-induction vs induction); higher = less antimicrobial activity (less host growth inhibition)
Details: time post-induction: 4.5 h; library: site-saturation at positions 5, 18, 19, 20
Listed here: items and their measured shrunken log2 fold change.
Respond with the number and no other words.

Solved cases (3 shown):
[
  {
    "sequence_text": "RRIRSRPPRLPRPRPRPIIQPRP",
    "tested_target": "Escherichia coli TOP10",
    "shrunken log2 fold change": -0.429
  },
  {
    "sequence_text": "RRIRTRPPRLPRPRPRPGTGPRP",
    "tested_target": "Escherichia coli TOP10",
    "shrunken log2 fold change": 0.257
  },
  {
    "sequence_text": "RRIRTRPPRLPRPRPRPWYCPRP",
    "tested_target": "Escherichia coli TOP10",
    "shrunken log2 fold change": -0.153
  }
]

Lab book: shrunken log2 fold change of RRIRCRPPRLPRPRPRPEHDPRP noted as -0.131

Lab book: shrunken log2 fold change of RRIRARPPRLPRPRPRPEVAPRP noted as 0.214

Lab book: shrunken log2 fold change of RRIRDRPPRLPRPRPRPRLIPRP noted as -0.189

Lab book: shrunken log2 fold change of RRIRVRPPRLPRPRPRPQDNPRP noted as -1.05

Lab book: shrunken log2 fold change of RRIRGRPPRLPRPRPRPMKVPRP noted as -0.0224

Lab book: shrunken log2 fold change of RRIRMRPPRLPRPRPRPYMKPRP noted as -0.0154

Lab book: shrunken log2 fold change of RRIRMRPPRLPRPRPRPLCFPRP noted as 0.562

Lab book: shrunken log2 fold change of RRIRLRPPRLPRPRPRPDRVPRP noted as -0.0538

Lab book: shrunken log2 fold change of RRIRMRPPRLPRPRPRPTCIPRP noted as -0.00872

Lab book: shrunken log2 fold change of RRIRERPPRLPRPRPRPLSTPRP noted as -0.48

Lab book: shrunken log2 fold change of RRIRMRPPRLPRPRPRPIVKPRP noted as 0.0312

Lab book: shrunken log2 fold change of RRIRMRPPRLPRPRPRPAEVPRP noted as 0.411

* * *

Tested on: Escherichia coli TOP10;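 note: peptides expressed intracellularly from a pBAD plasmid library in pooled LB shake-flask culture, induced with 0.3% L-arabinose, DNA abundance read by NGS, three biological replicates, DESeq2 with apeglm shrinkage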
Test: shrunken log2 fold change of peptide-encoding DNA abundance (4.5 h post-induction vs induction); higher = less antimicrobial activity (less host growth inhibition)
Details: time post-induction: 4.5 h; library: site-saturation at positions 5, 18, 19, 20
# if value of shrunken log2 fold change reaches -0.09, tag 1 (yes); if it stays below, tag 0 (no)

As a guide, the following entries are already answered.
[
  {
    "sequence_text": "RRIRNRPPRLPRPRPRPFILPRP",
    "assigned_category": "0 (no)"
  },
  {
    "sequence_text": "RRIRWRPPRLPRPRPRPYPSPRP",
    "assigned_category": "1 (yes)"
  },
  {
    "sequence_text": "RRIRHRPPRLPRPRPRPEHTPRP",
    "assigned_category": "0 (no)"
  },
  {
    "sequence_text": "RRIRYRPPRLPRPRPRPNCDPRP",
    "assigned_category": "0 (no)"
  },
  {
    "sequence_text": "RRIRKRPPRLPRPRPRPPSTPRP",
    "assigned_category": "1 (yes)"
  }
]

[Q] Please tell me: is the sequence RRIRDRPPRLPRPRPRPEAQPRP at or over -0.09 in terms of shrunken log2 fold change?
[A] 1 (yes)

[Q] Please tell me: is the sequence RRIRTRPPRLPRPRPRPGRYPRP at or over -0.09 in terms of shrunken log2 fold change?
[A] 1 (yes)

[Q] Please tell me: is the sequence RRIRGRPPRLPRPRPRPISHPRP at or over -0.09 in terms of shrunken log2 fold change?
[A] 1 (yes)
